Assay System: His-tagged KRAS G12D protein (Homo sapiens, UniProt P01116, G12D)
Sequence (P01116 1-188 isoform P01116-2 G12D): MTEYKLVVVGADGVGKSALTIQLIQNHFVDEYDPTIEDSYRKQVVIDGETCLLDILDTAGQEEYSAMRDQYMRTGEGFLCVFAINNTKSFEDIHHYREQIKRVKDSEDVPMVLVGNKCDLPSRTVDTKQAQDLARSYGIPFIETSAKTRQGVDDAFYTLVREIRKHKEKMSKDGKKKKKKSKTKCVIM
Assay Details: KRAS G12D TR-FRET Assay
# IC50 per record follows

Compound: CCc1c(F)ccc2cc(O)cc(-c3ccc4c(N5C[C@@H]6CC[C@H]5CN6)nc(OC[C@@]56CCCN5C[C@H](F)C6)nc4c3)c12
IC50 / nM: 2
--
Compound: CCc1c(F)ccc2cc(O)cc(-c3c(F)cc4c(N5[C@@H]6CC[C@H]5CNC6)nc(OC[C@@]56CCCN5C[C@H](F)C6)nc4c3F)c12
IC50 / nM: 3
--
Compound: Fc1c(-c2cccc(Cl)c2C(F)(F)F)ccc2c(N3C[C@H]4CC[C@@H](C3)N4)nc(OC[C@@]34CCCN3C[C@H](F)C4)nc12
IC50 / nM: 7
--
Compound: Cc1cccc2cccc(-c3ccc4c(N5[C@@H]6CC[C@H]5CNC6)nc(OC[C@@]56CCCN5C[C@H](F)C6)nc4c3F)c12
IC50 / nM: 90
--
Compound: CCc1c(F)ccc2cccc(-c3ccc4c(N5C[C@H]6CC[C@@H](C5)N6)nc(OC[C@@]56CCCN5C[C@H](F)C6)nc4c3F)c12
IC50 / nM: 4
--
Compound: Cc1c(Cl)cc2[nH]ncc2c1-c1ccc2c(N3[C@@H]4CC[C@H]3CNC4)nc(OC[C@@]34CCCN3C[C@H](F)C4)nc2c1
IC50 / nM: 195
--
Compound: Oc1cc(-c2c(F)cc3c(N4C[C@H]5CC[C@@H](C4)N5)nc(OC[C@@]45CCCN4C[C@H](F)C5)nc3c2F)c2c(F)c(F)ccc2c1
IC50 / nM: 4
--
Compound: Oc1cc(-c2ccc3c(N4C[C@@H]5C[C@H]4CN5)nc(OC[C@@]45CCCN4C[C@H](F)C5)nc3c2F)c2ccccc2c1
IC50 / nM: 11
--
Compound: Oc1cc(-c2c(F)cc3c(N4C[C@@H]5C[C@H]4CN5)nc(OC[C@@]45CCCN4C[C@H](F)C5)nc3c2F)c2ccccc2c1
IC50 / nM: 18
--
Compound: CCc1c(F)ccc2cc(O)cc(-c3c(F)cc4c(N5C[C@H]6CC[C@@H](C5)N6)nc(OCC(C)(O)CC)nc4c3F)c12 (stereo partly drawn)
IC50 / nM: 13
--
Compound: Nc1cc(-c2ccc3c(N4[C@@H]5CC[C@H]4CNC5)nc(OC[C@@]45CCCN4C[C@H](F)C5)nc3c2F)c2ccccc2c1
IC50 / nM: 34
--
Compound: C#Cc1c(F)ccc2cc(O)cc(-c3c(F)cc4c(N5C[C@@H]6CC[C@H]5CN6)nc(OC[C@@]56CCCN5C[C@H](F)C6)nc4c3F)c12
IC50 / nM: 2

* * *

Assay System: His-tagged KRAS G12D protein (Homo sapiens, UniProt P01116, G12D)
Assay Details: KRAS G12D TR-FRET Assay
pIC50: −log10 of the molar value.

Compound: Oc1cc(-c2c(F)cc3c(N4C[C@H]5CC[C@@H]4CN5)nc(OC[C@@]45CCCN4C[C@H](F)C5)nc3c2F)c2ccccc2c1Cl [Example 206]
pIC50: 7.52
--
Compound: Oc1cc(Cl)c(C2CC2)c(-c2c(F)cc3c(N4CC5CCC4CN5)nc(OC[C@@]45CCCN4C[C@H](F)C5)nc3c2F)c1 (stereo in doubt) [Example 143]
pIC50: 8.52
--
Compound: C#Cc1cccc2cc(O)cc(-c3c(F)cc4c(N5C[C@H]6C[C@@H](C5)N6)nc(OC[C@@]56CCCN5C[C@H](F)C6)nc4c3F)c12 [Example 183]
pIC50: 8.70

* * *

Assay System: His-tagged KRAS G12D protein (Homo sapiens, UniProt P01116, G12D)
Assay Details: KRAS G12D TR-FRET Assay
pIC50: −log10 of the molar value.

Compound: Fc1c(-c2ccc(Cl)c3ccccc23)c(Cl)cc2c(N3C[C@H]4CC[C@@H](C3)N4)nc(OC[C@@]34CCCN3C[C@H](F)C4)nc12 [Example 79]
pIC50: 7.59

Compound: CCc1cccc2cccc(-c3cc4nc(OC[C@@]56CCCN5C[C@H](F)C6)nc(N5C[C@H]6CC[C@@H](C5)N6)c4cc3F)c12 [Example 72]
pIC50: 7.64

Compound: C=Cc1c(F)ccc2cccc(-c3ccc4c(N5[C@@H]6CC[C@H]5CNC6)nc(OC[C@@]56CCCN5C[C@H](F)C6)nc4c3)c12 [Example 104]
pIC50: 6.26

* * *

Assay System: GDP-bound KRAS protein (aa 1-169), containing both G12D and C118A amino acid substitutions (Homo sapiens, UniProt P01116, C118A/G12D)
Sequence (P01116 1-169 isoform P01116-2 G12D/C118A): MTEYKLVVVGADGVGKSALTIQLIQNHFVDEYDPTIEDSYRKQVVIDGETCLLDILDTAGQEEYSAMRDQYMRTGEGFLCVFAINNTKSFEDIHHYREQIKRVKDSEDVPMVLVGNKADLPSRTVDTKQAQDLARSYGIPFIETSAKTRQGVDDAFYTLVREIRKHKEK
Assay Details: KRAS G12D Coupled Nucleotide Exchange Assay
Type: biochemical
Stated Conditions: 2 h compound pre-incubation
Lab note: anything with Avg 2 h Coupled Exchange IC50 at or over 5 nM counts as class 1; the rest go in class 0.

Smi: CCc1c(F)ccc2cc(O)cc(-c3c(F)cc4c(N5[C@@H]6CC[C@H]5CNC6)nc(OC[C@@H]5C[C@@H](F)CN5C)nc4c3F)c12
Cat: class 0
--
Smi: Oc1cc(-c2ccc3c(N4C[C@H]5COC[C@@H](C4)N5)nc(OC[C@@]45CCCN4C[C@H](F)C5)nc3c2F)c2ccccc2c1
Cat: class 1
--
Smi: CCc1cccc2cc(O)cc(-c3cc4nc(OC[C@@]56CCCN5C[C@H](F)C6)nc(N5C[C@H]6CC[C@@H](C5)N6)c4cc3F)c12
Cat: class 0
--
Smi: Oc1ccc(Cl)c(-c2ccc3c(N4C[C@H]5CC[C@@H](C4)N5)nc(OC[C@@]45CCCN4C[C@H](F)C5)nc3c2)c1F
Cat: class 1
--
Smi: CCc1c(F)ccc2cc(O)cc(-c3cc4nc(OC[C@@]56CCCN5C[C@H](F)C6)nc(N5C[C@H]6CC[C@@H](C5)N6)c4cc3O)c12
Cat: class 1
--
Smi: N#Cc1c(OC[C@@]23CCCN2C[C@H](F)C3)nc2c(F)c(-c3cc(O)cc4ccccc34)ccc2c1N1C[C@H]2CC[C@@H](C1)N2
Cat: class 1
--
Smi: Oc1cc(-c2ccc3c(N4[C@@H]5CC[C@H]4CNC5)nc(OC[C@@]45CCCN4C[C@H](F)C5)nc3c2F)c2ncccc2c1
Cat: class 1
--
Smi: Cc1cc2[nH]ncc2c(-c2ccc3c(N4C[C@H]5CC[C@@H](C4)N5)nc(OC[C@@]45CCCN4C[C@H](F)C5)nc3c2)c1Cl
Cat: class 1
--
Smi: N#Cc1cccc2cc(O)cc(-c3c(F)cc4c(N5C[C@H]6CC[C@@H](C5)N6)nc(OC[C@@]56CCCN5C[C@H](F)C6)nc4c3F)c12
Cat: class 0

* * *

# Avg 2 h Coupled Exchange IC50 per record follows
Assay System: GDP-bound KRAS protein (aa 1-169), containing both G12D and C118A amino acid substitutions (Homo sapiens, UniProt P01116, C118A/G12D)
Assay Details: KRAS G12D Coupled Nucleotide Exchange Assay
Format: biochemical
Stated Conditions: 2 h compound pre-incubation

Compound: CCc1c(F)ccc2cc(O)cc(-c3ccc4c(N5C[C@@H]6CC[C@H]5CN6)nc(OC[C@@]56CCCN5C[C@H](F)C6)nc4c3C)c12 [Example 92]
Avg 2 h Coupled Exchange IC50 / nM: 33
--
Compound: Cc1ccc2cnn(C)c2c1-c1c(F)cc2c(N3C[C@H]4CC[C@@H](C3)N4)nc(OC[C@@]34CCCN3C[C@H](F)C4)nc2c1F [Example 164]
Avg 2 h Coupled Exchange IC50 / nM: 6
--
Compound: CN1C[C@H](F)C[C@H]1COc1nc(N2[C@@H]3CC[C@H]2CNC3)c2cc(F)c(-c3cc(O)cc4cccnc34)c(F)c2n1 [Example 30]
Avg 2 h Coupled Exchange IC50 / nM: 158
--
Compound: Oc1ccc(-c2c(Cl)cc3c(N4C[C@H]5CC[C@@H](C4)N5)nc(OC[C@@]45CCCN4C[C@H](F)C5)nc3c2F)c2ccccc12 [Example 80]
Avg 2 h Coupled Exchange IC50 / nM: 4
--
Compound: Cc1ccc2[nH]nc(C)c2c1-c1c(F)cc2c(N3C[C@H]4CC[C@@H](C3)N4)nc(OC[C@@]34CCCN3C[C@H](F)C4)nc2c1F [Example 208]
Avg 2 h Coupled Exchange IC50 / nM: 8
--
Compound: CCc1cccc2cc(O)cc(-c3ccc4c(N5C[C@H]6CC[C@@H](C5)N6)nc(OC[C@@]56CCCN5C[C@H](F)C6)nc4c3C)c12 [Example 168]
Avg 2 h Coupled Exchange IC50 / nM: 8
--
Compound: CCc1cccc2cc(O)cc(-c3c(F)cc4c(N5C[C@@H]6CC[C@H]5CN6)nc(OC[C@@]56CCCN5C[C@H](F)C6)nc4c3F)c12 [Example 109]
Avg 2 h Coupled Exchange IC50 / nM: 3
--
Compound: C#Cc1c(F)ccc2cc(O)cc(-c3ccc4c(N5[C@@H]6CC[C@H]5CNC6)nc(OC[C@@]56CCCN5C[C@H](F)C6)nc4c3F)c12 [Example 187]
Avg 2 h Coupled Exchange IC50 / nM: 1
--
Compound: CCc1cccc2cccc(-c3ccc4c(N5C[C@H]6CC[C@@H](C5)N6)nc(OC[C@@]56CCCN5C[C@H](F)C6)nc4c3C)c12 [Example 59]
Avg 2 h Coupled Exchange IC50 / nM: 11
--
Compound: CCc1c(F)ccc2cc(O)cc(-c3c(F)cc4c(N5C[C@H]6CC[C@@H](C5)N6)nc(OCC5(C)CCC(=O)O5)nc4c3F)c12 (stereo partly drawn) [Example 212]
Avg 2 h Coupled Exchange IC50 / nM: 3
--
Compound: CCc1c(F)ccc2cc(O)cc(-c3ccc4c(N5[C@@H]6CC[C@H]5CNC6)nc(OC[C@@]56CCCN5C[C@H](F)C6)nc4c3C)c12 [Example 161]
Avg 2 h Coupled Exchange IC50 / nM: 79
--
Compound: N#Cc1cc(O)cc(-c2c(F)cc3c(N4C[C@H]5CC[C@@H](C4)N5)nc(OC[C@@]45CCCN4C[C@H](F)C5)nc3c2F)c1C1CC1 [Example 227]
Avg 2 h Coupled Exchange IC50 / nM: 4
